Quick list: GI50 per entry.
# System: TK-10
# assayText: NCI tumour cell line growth inhibition, 48 h
Calls of active or inactive are those of the source. No stated cut-off is given here; in the data, active = GI50 up to about 1.1 µM and inactive = higher.

Known GI50 results, listed for orientation:
Exam item: Could you share what GI50 was measured for O=C(/C=C/c1ccc(O)c(O)c1O)OCCc1ccccc1 , tested on TK-10?
Marked response: 83.2 µM (inactive)

Exam item: C#CCOCn1cnc2ncnc(Cl)c21 ?
Marked response: > 100 µM (inactive)

Exam item: Try this compound too: S=C1C=C(c2ccccc2)Sc2ccccc2N1
Marked response: > 100 µM (inactive)

Exam item: Same question for Cc1ccc(NC(=O)c2cc3ccccc3c(/N=N/c3cc(S(=O)(=O)O)ccc3O)c2O)c(C)c1 please.
Marked response: 25.1 µM (inactive)

Exam item: What do you get for COc1cc2c(cc1OC)C1=C(C=O)c3ccc(OC)c(OC)c3C(O)N1CC2 (stereo not given) ?
Marked response: 20.9 µM (inactive)

Others:
Exam item: # returns recorded GI50 (system: TK-10) for O=C(CC(O)(C(F)(F)F)C(F)(F)F)C(c1ccccc1)C(O)(C(F)(F)F)C(F)(F)F (stereo not given)
Marked response: 26.3 µM (inactive)

Exam item: What about COC(=O)C1=C(C)NC(=S)NC1c1ccc(N(CCCl)CCCl)cc1Cl (stereo not given) ?
Marked response: 32.4 µM (inactive)

Exam item: Would you kindly repeat that for CC(C)=CCC/C(C)=C/C=C/C(C)=C/C=C/C(C)=C/C=C/C=C(C)/C=C/C=C(C)/C=C/[C@H]1C(C(C)(C)O)CC[C@]1(C)O (stereo not given in full) ?
Marked response: 37.3 µM (inactive)

Exam item: Also, CC1(CO)OC(n2cnc3cncnc32)CC1O (stereo not given) please.
Marked response: > 100 µM (inactive)

Exam item: Try C=C1C(=O)O[C@@H]2[C@H]1C[C@H](I)[C@@]1(C)CC[C@H](O1)[C@](C)(I)CCCC(C)[C@@H]2O (stereo not given in full) next.
Marked response: 1.75 µM (inactive)

Exam item: Cool, now CC(=O)Nc1cc2c3c(c1)CCCN3CCC2
Marked response: > 100 µM (inactive)

Exam item: Record: O=C(CSc1nnc(Cc2ccccc2)o1)Nc1ccc(Cl)cc1
Marked response: > 100 µM (inactive)

Exam item: What would you report for CCOCN1COCN(C)C1=O ?
Marked response: > 100 µM (inactive)

Exam item: Same read-out for CN1Cc2ccccc2S(=O)(=O)n2cccc2C1=O ?
Marked response: > 100 µM (inactive)

====

# Test system: NCI-H226
# assayText: NCI tumour cell line growth inhibition, 48 h
The source made the active and inactive calls. Cut-off read from the data, not from the text of the source: active = GI50 up to about 1.1 µM and inactive = higher.
observedProperty: GI50

Exam item: Tell me the measured GI50 of CC(C)(C)[Si](C)(C)OC1(CCc2ccccc2OS(=O)(=O)C(F)(F)F)CCCC=C1COCc1ccccc1 (centres undefined) , please.
Marked response: 46.1 µM (inactive)

====

Listing of entries alongside the reported GI50.
# Tested on: HT-29
# assayText: NCI tumour cell line growth inhibition, 48 h
The source made the active and inactive calls. No stated cut-off is given here; in the data, active = GI50 up to about 1.1 µM and inactive = higher.

These solved cases illustrate the format of a correct answer.
Exam item: GI50 for Cc1ccc(S(=O)(=O)CC2CCCn3c2c(C#N)c2ccccc23)cc1 (stereo not drawn) ?
Marked response: > 100 µM (inactive)

Exam item: What about this compound? COc1cccc(-c2ccc3c4c2O[C@H]2C(=O)CC[C@@]5(O)[C@@H](C3)N(CC3CC3)CC[C@]425)c1
Marked response: 11.6 µM (inactive)

---
Exam item: Consider the compound shown here: COc1ccc(/C=C2\CCC(C)(CN(C)C)C2=O)cc1OC (stereo not drawn) What is its recorded GI50?
Marked response: > 100 µM (inactive)

Exam item: Also, CC(C)(C)OC(=O)N1CCC(NC(=O)NC2CCN(C(=O)OC(C)(C)C)CC2)CC1 please.
Marked response: > 100 µM (inactive)

Exam item: And the next one, CCOCN1COCN(C)C1=O ?
Marked response: > 100 µM (inactive)

Exam item: Try COc1ccc(C)cc1N1C(=O)C2ON(Cc3ccc(CC(N)=O)cc3)C(c3c4ccccc4c(Cl)c4ccccc34)C2C1=O (stereo not drawn) next.
Marked response: 20.3 µM (inactive)

Exam item: Record: N/C(=N\O)N/N=C/c1ccc2c(c1)OCCO2
Marked response: 8.53 µM (inactive)

Exam item: Now consider O=C(O/C(=C(/N=N/c1ccccc1)c1ccccc1)c1ccccc1)c1ccccc1 .
Marked response: > 100 µM (inactive)

====

# System: SK-MEL-2
# assayText: NCI tumour cell line growth inhibition, 48 h
Active and inactive are the calls of the source. Cut-off read from the data, not from the text of the source: active = GI50 up to about 1.1 µM and inactive = higher.
Collected GI50 values appear next to each entry.

Previously resolved entries follow.
Exam item: Field request: GI50 | item: CCOC(=O)C1(N)CCc2[nH][nH]c(=O)c2C1 (stereo unspecified)
Marked response: > 100 µM (inactive)

Exam item: And COC(=O)/C(=N\NC(=O)c1ccccc1O)C(C#N)c1ccccc1 (stereo unspecified) ?
Marked response: > 50 µM (inactive)

Exam item: Param item: Cc1cccc(NC(=O)C(=O)C(C(=O)c2ccccc2F)C2OC(=O)c3ccccc32)c1Cl (stereo unspecified)
Marked response: 16.8 µM (inactive)

Exam item: Can you handle COc1ccc(C(=O)/C(=N/Nc2ccccc2)c2ccc(OC)cc2)cc1 next?
Marked response: > 100 µM (inactive)

Exam item: Try CC(O)CN1c2ccccc2Sc2ccc(Cl)cc21 (stereo unspecified) next.
Marked response: > 10 µM (inactive)

Exam item: What do you get for S=P1(Oc2ccccc2)NNP2(=NP(N3CC3)(N3CC3)=NP(N3CC3)(N3CC3)=N2)NN1 (stereo unspecified) ?
Marked response: > 100 µM (inactive)

Exam item: And Cc1cc(S(=O)(=O)/N=C(\NN)Nc2ccc(Cl)cc2)c(S)cc1Cl ?
Marked response: 19.2 µM (inactive)

Exam item: What do we get for Cc1ccc(S(=O)(=O)NN=C2C(C)(C)CC2(C)C)cc1 ?
Marked response: > 100 µM (inactive)

Exam item: Same thing, different compound: CC1CCC[P+](Cc2ccccc2)(c2ccccc2)CC1 (stereo unspecified)
Marked response: 21.6 µM (inactive)

Exam item: Let us now turn to COc1ccc(/C=C/c2cc(OC)c(OC)c(OC)c2)cc1
Marked response: 2.36 µM (inactive)

Shift focus to the following entry.
Exam item: For the compound N#CC1CCCC2SC(F)(F)C(F)(F)C12 (stereo unspecified) , what GI50 is on record?
Marked response: > 100 µM (inactive)

====

A collection of compounds and their measured GI50
# Test system: HOP-62
# assayText: NCI tumour cell line growth inhibition, 48 h
Calls of active or inactive are those of the source. Rule as the data show it: active = GI50 up to about 1.1 µM and inactive = higher.

Recorded GI50, per entry:
Exam item: Reported GI50, compound CCn1cnnc1-c1nsc2ccccc12 : ____
Marked response: > 100 µM (inactive)

Exam item: Next entry: Cc1ccc(S(=O)OCc2c(C)c(C)c(COS(=O)c3ccc(C)cc3)c(C)c2C)cc1 (centres undefined)
Marked response: > 100 µM (inactive)

Exam item: Again, but for CN(CCCN=C=S)CCCN1c2ccccc2CCc2ccccc21
Marked response: 1.83 µM (inactive)

Further cases:
Exam item: So what's the measured GI50 for this one? CC1(CO)OC(n2cnc3cncnc32)CC1O (centres undefined)
Marked response: > 100 µM (inactive)

====

# System: A549
# assayText: NCI tumour cell line growth inhibition, 48 h
Active and inactive are the calls of the source. Cut-off read from the data, not from the text of the source: active = GI50 up to about 1.1 µM and inactive = higher.
Form field: GI50 (one value per entry).

Reference set, count: 10
Exam item: Item O=C(CC(O)c1cccnc1)CC(O)c1cccnc1 (centres undefined) has what recorded GI50?
Marked response: 20.6 µM (inactive)

Exam item: CC(C)(C)OC(=O)NCCC(=O)NC1(c2cc3ccccc3s2)CCCCC1 , same question.
Marked response: 15.9 µM (inactive)

Exam item: Also COc1cc2c3cc1Oc1c(O)c(OC)cc4c1C(Cc1ccc(O)c(c1)Oc1ccc(cc1)CC3N(C)CC2)N(C)CC4 (centres undefined) ?
Marked response: 17.6 µM (inactive)

Exam item: What would you report for c1ccc(N2CCN(CCCN3CCc4c([nH]c5ccccc45)C3c3cccnc3)CC2)cc1 (centres undefined) ?
Marked response: > 100 µM (inactive)

Exam item: Please do the same for Cc1cc(Cl)ccc1Nc1sc(C(=O)c2cc3cc(Cl)ccc3o2)c(N)c1C#N as well.
Marked response: 5.98 µM (inactive)

Exam item: What would you report for CC(=O)OCC1OC(SC2OC(COC(C)=O)C(OC(C)=O)C(OC(C)=O)C2OC(C)=O)C(OC(C)=O)C(OC(C)=O)C1OC(C)=O (centres undefined) ?
Marked response: > 100 µM (inactive)

Exam item: Then OC(c1ccccc1)(c1ccccc1)c1cccnc1 ?
Marked response: > 100 µM (inactive)

Exam item: # repeat for CN1CCN(CN2C(=O)C3C4C=CC(C3C2=O)C2C3C(=O)N(CN5CCN(C)CC5)C(=O)C3C42)CC1 (centres undefined)
Marked response: 32.4 µM (inactive)

Exam item: Let us now turn to Oc1ccc(I)c2cccnc12
Marked response: 5.52 µM (inactive)

Exam item: Queued: O=C(CSc1nnc(Cc2ccccc2)o1)Nc1ccc(Cl)cc1
Marked response: > 100 µM (inactive)

---
Exam item: Can you share its GI50? I mean this compound: O=C(COc1ccc(OCC(=O)NNC2=NC(c3cc(F)c(Cl)cc3Cl)CS2)c(Cl)c1)NNC1=NC(c2cc(F)c(Cl)cc2Cl)CS1 (centres undefined)
Marked response: 14.3 µM (inactive)

Exam item: Again, but for N#Cc1nc(C#N)n(S(=O)(=O)c2ccccc2)c1NS(=O)(=O)c1ccccc1
Marked response: > 100 µM (inactive)

Exam item: // next record CCCN(CCCCC(NC(C)=O)C(=O)NCc1ccccc1)C(=O)N(CCCl)N=O (centres undefined)
Marked response: 32.3 µM (inactive)

Exam item: Could you do the same for COc1ccc(NC(C)=O)cc1N1C(=O)/C(=C\c2cc(OC)c(OC)c(OC)c2)S(=O)(=O)C1c1ccccc1 (centres undefined) , please?
Marked response: 61.7 µM (inactive)
